Where do these numbers come from? They come from ChEMBL document CHEMBL5370539.

- System Tested: Glycogen synthase kinase-3 beta (Homo sapiens)
- Sequence (P49841 whole entry): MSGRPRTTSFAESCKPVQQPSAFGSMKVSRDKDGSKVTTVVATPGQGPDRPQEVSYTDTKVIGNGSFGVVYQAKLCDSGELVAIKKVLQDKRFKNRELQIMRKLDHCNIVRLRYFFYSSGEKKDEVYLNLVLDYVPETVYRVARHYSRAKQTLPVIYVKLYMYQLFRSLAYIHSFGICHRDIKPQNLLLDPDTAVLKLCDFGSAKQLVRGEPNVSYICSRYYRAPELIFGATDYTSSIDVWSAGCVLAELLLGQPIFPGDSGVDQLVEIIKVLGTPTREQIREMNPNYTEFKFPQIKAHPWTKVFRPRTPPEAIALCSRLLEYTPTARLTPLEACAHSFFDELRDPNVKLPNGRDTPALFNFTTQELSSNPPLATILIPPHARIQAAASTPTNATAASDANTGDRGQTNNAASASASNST
- Assay Remarks: Inhibition of recombinant human GSK-3beta using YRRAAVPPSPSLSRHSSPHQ(pS)EDEE as substrate preincubated for 15 mins followed by substrate addition and measured after 60 mins by Kinase-Glo luminescent kinase assay
In this section, each of the molecules is paired with its reported IC50.

COc1ccc(-c2ocnc2C(=O)NCCCNC(=O)/C=C/c2cc(C(C)(C)C)c(O)c(C(C)(C)C)c2)cc1Cl : 0.41 nM
COc1ccc(-c2ocnc2C(=O)NCCCNC(=O)/C=C/c2cc(C(C)(C)C)c(O)c(C(C)(C)C)c2)cc1I : > 1 nM
COc1ccc(-c2ocnc2C(=O)NCCCNC(=O)CCc2cc(C(C)(C)C)c(O)c(C(C)(C)C)c2)cc1F : > 1 nM
COc1ccc(-c2ocnc2C(=O)NCCCc2ccc(NC(=O)/C=C/c3cc(C(C)(C)C)c(O)c(C(C)(C)C)c3)cc2)cc1F : > 1 nM
COc1ccc(-c2ocnc2C(=O)NCCCn2cc(CNC(=O)CCc3cc(C(C)(C)C)c(O)c(C(C)(C)C)c3)nn2)cc1I : 0.81 nM

Sample `COc1ccc(-c2ocnc2C(=O)NCCCNC(=O)CCc2cc(C(C)(C)C)c(O)c(C(C)(C)C)c2)cc1I` ; IC50 observed: > 1 nM

Sample `COc1ccc(-c2ocnc2C(=O)NCCCn2cc(CNC(=O)c3cc(C(C)(C)C)c(O)c(C(C)(C)C)c3)nn2)cc1I` ; IC50 observed: 0.31 nM

Sample `COc1c(F)cc(-c2ocnc2C(=O)NCCCNC(=O)CCc2cc(C(C)(C)C)c(O)c(C(C)(C)C)c2)cc1F` ; IC50 observed: > 1 nM

Sample `COc1ccc(-c2ocnc2C(=O)NCCCNC(=O)c2cc(C(C)(C)C)c(O)c(C(C)(C)C)c2)cc1Cl` ; IC50 observed: > 1 nM

----------
In this section, each of the compounds is paired with its reported IC50.
- System Tested: UniProt:P49841
- Assay Remarks: Inhibition of recombinant human GSK-3beta using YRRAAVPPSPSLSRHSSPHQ(pS)EDEE as substrate preincubated for 15 mins followed by substrate addition and measured after 60 mins by Kinase-Glo luminescent kinase assay
Express the result in pM but write the number alone.

COc1ccc(-c2ocnc2C(=O)NCCCn2cc(CNC(=O)CCc3cc(C(C)(C)C)c(O)c(C(C)(C)C)c3)nn2)cc1Cl : 270
COc1ccc(-c2ocnc2C(=O)NCCCCNC(=O)CCc2cc(C(C)(C)C)c(O)c(C(C)(C)C)c2)cc1F : 780
COc1ccc(-c2ocnc2C(=O)NCCCc2ccc(NC(=O)/C=C/c3cc(C(C)(C)C)c(O)c(C(C)(C)C)c3)cc2)cc1Cl : 250
COc1ccc(-c2ocnc2C(=O)NCCCCNC(=O)c2cc(C(C)(C)C)c(O)c(C(C)(C)C)c2)cc1Cl : 810
COc1ccc(-c2ocnc2C(=O)NCCCCNC(=O)CCc2cc(C(C)(C)C)c(O)c(C(C)(C)C)c2)cc1Cl : 840
COc1c(F)cc(-c2ocnc2C(=O)NCCCc2ccc(NC(=O)/C=C/c3cc(C(C)(C)C)c(O)c(C(C)(C)C)c3)cc2)cc1F : 950

Sample `COc1c(F)cc(-c2ocnc2C(=O)NCCCNC(=O)c2cc(C(C)(C)C)c(O)c(C(C)(C)C)c2)cc1F` ; IC50 observed: 960

Sample `COc1ccc(-c2ocnc2C(=O)NCCCNC(=O)c2cc(C(C)(C)C)c(O)c(C(C)(C)C)c2)cc1I` ; IC50 observed: 480
